Each item that follows carries a reported protein stability index.
B1: GAGE1 (parent)
chain: RPRRYVQPPEMIGPMRPEQFSDEV

Variants of: B1
Assay: protein stability index of a GFP-peptide fusion (GPS, HEK-293T) (PSI 1-6); higher = more stable;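 note: lentivirally expressed fusions sorted by FACS into six bins by GFP to DsRed ratio, PSI derived from sequencing read proportions per bin multiplied by bin number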
Settings: c terminus: a fixed tail appended
Respond using a number only.

Known protein stability index results, listed for orientation:
mut=V24H observed_result=4.46
mut=E10W observed_result=3.56
mut=P17I observed_result=3.72
mut=R4D observed_result=4.46
mut=P14I observed_result=4.13
mut=Q19V observed_result=3.78

Would you kindly look at the next entry?
What measured protein stability index goes with Q19F ?
3.62
